Origin of measurements: PubChem BioAssay (NCI)

- Tested on: K-562 leukemia
- procedure_summary: NCI-60 one-dose screen, 48 h (100 = growth as untreated, 0 = no growth, -100 = all killed)
- condition_summary: 10 µM unless noted
The panel holds about 83,000 compounds, 20% with a hit somewhere; the sample as a whole holds those more often. Active and inactive are the calls of the source. The calls were made as follows: active = growth percent below 10; inactive = the rest.

{"compound": "COc1cc(/C=C/C(=O)c2ccc(F)cc2)ccc1OCCCCCOc1cc2c(cc1OC)C(=O)N1CCCC1C=N2 (configuration not stated)", "growth": "-6.46% (active)"}
{"compound": "CC(=O)Oc1ccc(C2OC(c3ccc4ccccc4c3OC(C)=O)=NN2C(C)=O)c(OC(C)=O)c1 (configuration not stated)", "growth": "4.1% (active)"}
{"compound": "Cc1cc2c(cc1C)Nc1sc(NC(=O)CN3CCN(C)CC3)nc1C(=O)N2", "growth": "81.7% (inactive)"}
{"compound": "COc1ccc(-c2cc(C(=O)Nc3nc4cc(C)c(C)cc4s3)nc3cc(-c4ccccc4)nn23)cc1OC", "growth": "110% (inactive)"}
{"compound": "COc1cc(OC)c2cc(C(=O)O)c(=O)oc2c1", "growth": "95.1% (inactive)"}
{"compound": "O=[N+]([O-])c1ccc(N/N=C\\c2ccccc2[N+](=O)[O-])nc1", "growth": "94.6% (inactive)"}
{"compound": "COc1ccc2nc(-c3ccc(-n4cncc4-c4ccc(OC)c(N)c4)cc3)sc2c1", "growth": "90.6% (inactive)"}

====

Entries and their growth values follow.
- Tested on: MCF7 breast
- procedure_summary: NCI-60 one-dose screen, 48 h (100 = growth as untreated, 0 = no growth, -100 = all killed)
- condition_summary: 10 µM unless noted
About 83,000 compounds went through this panel and 20% of them were active in at least one assay; those are over-represented in the sample as a whole.
measurement_name: growth (%)

{"compound": "CCn1c2ccccc2c2ccc(C(C)=O)cc21", "numeric_value": 102}
{"compound": "C[C@]12CC[C@@H]3c4ccc(O)cc4CC[C@H]3[C@@H]1CC[C@@H]2NS(=O)(=O)c1cccc(Br)c1", "numeric_value": 37.5}
{"compound": "CSc1nc2c(c(=O)[nH]1)C(c1ccc(Cl)cc1)C1=C(N2)/C(=C/c2ccc(Cl)cc2)CNC1 (stereo not drawn)", "numeric_value": 13}

====

Entries and their growth values follow.
- Tested on: U251 CNS
- procedure_summary: NCI-60 one-dose screen, 48 h (100 = growth as untreated, 0 = no growth, -100 = all killed)
- condition_summary: 10 µM unless noted
About 83,000 compounds went through this panel and 20% of them were active in at least one assay; those are over-represented in the sample as a whole.

{"compound": "N#Cc1cnc2cc(OC[C@H](O)CO)c(NC(=O)CC3CSSC3)cc2c1Nc1ccc(OCc2cccc(F)c2)c(Cl)c1", "growth, %": -69.2}
{"compound": "N=c1ccn2c(n1)O[C@@H]1[C@@H](O)[C@H](CO)O[C@@H]12", "growth, %": 52.2}
{"compound": "NNC(=O)NO", "growth, %": 104}
{"compound": "COc1ccc2nccc(/C=C/c3ccnc4ccc(OC)cc34)c2c1", "growth, %": 107}
{"compound": "ClC1C2CC(c3ccccc32)C1Cl (centres undefined)", "growth, %": 106}
{"compound": "O=C(C=C=Nc1ccccc1)C(=O)N=C=Cc1ccccc1", "growth, %": 83.7}
{"compound": "COc1ncc(-c2ccc3nccc(C#CCN4CCN(S(C)(=O)=O)CC4)c3c2)cc1NS(=O)(=O)c1ccc(F)cc1F", "growth, %": 6.79}
{"compound": "CC1=CC(=O)C(C(C)=Nc2ccccc2Cl)C(=O)O1 (centres undefined)", "growth, %": 103}
{"compound": "O=C(Nc1ccc(Cl)cc1)Nc1ccc(Nc2nncc3ccccc23)cc1", "growth, %": 18.3}
{"compound": "COC(=O)[C@]1(CCSC)N[C@H](c2cn(-c3ccccc3)nc2C)[C@@H]2C(=O)N(c3ccc(C)cc3)C(=O)[C@@H]21", "growth, %": 95.7}
{"compound": "COc1cc(OC)c2sc(-c3ccc(-n4cncc4-c4ccc(N)cc4)cc3)nc2c1", "growth, %": 59.3}
{"compound": "Nc1nc(SCC2(CCl)COC2)c2[nH]cnc2n1", "growth, %": 101}
{"compound": "O=C1OC(c2ccc(-c3ccccc3)cc2)=C/C1=C/c1cccs1", "growth, %": 100}
{"compound": "C[n+]1c2ccccc2c(NC2CCNCC2)c2[nH]c3ccccc3c21", "growth, %": 1.08}
{"compound": "COc1ccc(-c2oc3cc(O)c(OC)c(O)c3c(=O)c2OC)cc1O", "growth, %": 14}
{"compound": "COc1ccc2nc3cc(Cl)ccc3c(Nc3cc(C(C)C)c(O)cc3C)c2c1", "growth, %": 19.5}
{"compound": "COc1cc(/C=C2\\COc3ccc(O)c(O)c3C2=O)cc(OC)c1", "growth, %": -19.3}
{"compound": "C[C@@H]1CC[C@H]2[C@@H](C)C(O)O[C@@H]3O[C@]4(C)CC[C@@H]1[C@]32OO4 (some centres undefined)", "growth, %": 25.5}
{"compound": "COc1ccc2[nH]c(-c3ccccc3)cc2c1", "growth, %": 107}
